Reference source: patent US20210300939A1

# target_or_system: PI3K δ (Homo sapiens, UniProt O00329)
# Construct: (contract assay)
# Sequence (O00329 whole entry): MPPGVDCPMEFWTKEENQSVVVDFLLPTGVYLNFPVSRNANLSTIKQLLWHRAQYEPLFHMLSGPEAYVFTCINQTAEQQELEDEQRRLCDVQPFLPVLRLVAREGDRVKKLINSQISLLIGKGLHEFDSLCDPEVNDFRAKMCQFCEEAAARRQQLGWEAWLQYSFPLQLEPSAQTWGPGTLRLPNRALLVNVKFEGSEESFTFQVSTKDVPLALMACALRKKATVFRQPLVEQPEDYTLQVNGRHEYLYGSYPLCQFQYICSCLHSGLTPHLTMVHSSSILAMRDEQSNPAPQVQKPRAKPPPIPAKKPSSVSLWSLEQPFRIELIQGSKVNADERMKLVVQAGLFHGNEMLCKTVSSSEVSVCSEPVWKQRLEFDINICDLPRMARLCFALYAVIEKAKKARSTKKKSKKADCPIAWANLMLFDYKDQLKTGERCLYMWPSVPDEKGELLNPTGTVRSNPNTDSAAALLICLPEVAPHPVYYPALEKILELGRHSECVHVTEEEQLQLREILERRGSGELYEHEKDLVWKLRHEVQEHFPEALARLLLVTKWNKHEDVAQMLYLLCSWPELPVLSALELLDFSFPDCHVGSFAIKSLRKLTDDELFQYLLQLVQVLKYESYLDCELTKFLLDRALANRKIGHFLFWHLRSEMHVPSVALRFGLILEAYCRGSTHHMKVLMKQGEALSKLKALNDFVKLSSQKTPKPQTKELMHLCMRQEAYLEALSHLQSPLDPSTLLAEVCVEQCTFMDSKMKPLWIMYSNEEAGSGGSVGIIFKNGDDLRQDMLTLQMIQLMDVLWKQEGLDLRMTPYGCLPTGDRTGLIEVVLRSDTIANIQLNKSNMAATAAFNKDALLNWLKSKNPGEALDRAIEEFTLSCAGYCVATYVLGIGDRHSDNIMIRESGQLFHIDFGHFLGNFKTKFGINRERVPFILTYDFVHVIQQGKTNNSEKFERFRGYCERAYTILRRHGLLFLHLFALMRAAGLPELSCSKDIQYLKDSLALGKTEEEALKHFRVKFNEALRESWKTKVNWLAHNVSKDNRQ
# Sequence (P27986 whole entry partner): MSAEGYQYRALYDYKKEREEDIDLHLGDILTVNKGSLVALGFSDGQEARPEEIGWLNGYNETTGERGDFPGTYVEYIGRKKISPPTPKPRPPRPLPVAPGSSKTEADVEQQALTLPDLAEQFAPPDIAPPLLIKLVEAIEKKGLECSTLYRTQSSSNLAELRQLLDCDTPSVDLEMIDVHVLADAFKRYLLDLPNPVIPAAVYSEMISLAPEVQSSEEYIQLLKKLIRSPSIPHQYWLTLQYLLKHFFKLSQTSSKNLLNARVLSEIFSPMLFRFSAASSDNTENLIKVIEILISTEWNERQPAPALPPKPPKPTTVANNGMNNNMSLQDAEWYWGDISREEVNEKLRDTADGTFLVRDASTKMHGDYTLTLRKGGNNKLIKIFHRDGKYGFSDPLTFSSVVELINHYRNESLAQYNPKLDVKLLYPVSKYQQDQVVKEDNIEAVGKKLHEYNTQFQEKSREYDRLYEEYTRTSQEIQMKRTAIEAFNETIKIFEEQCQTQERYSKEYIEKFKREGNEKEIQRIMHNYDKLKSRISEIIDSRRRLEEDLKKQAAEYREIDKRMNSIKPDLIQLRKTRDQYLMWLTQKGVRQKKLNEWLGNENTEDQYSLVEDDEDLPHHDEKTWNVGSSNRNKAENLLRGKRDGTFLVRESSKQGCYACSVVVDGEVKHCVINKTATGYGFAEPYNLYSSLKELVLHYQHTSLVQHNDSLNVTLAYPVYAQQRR
# assay_summary: PI3K delta inhibition (Thermo Fisher Scientific)
# condition_set: 10-point curve; read-out: Target IC50 PI3K δ
pIC50: −log10 of the molar value.
assay_metric: pIC50

Example entries and their recorded answers appear below.
compound: C=CC(=O)N1CCOc2ccc(-c3csc4c(=O)cc(N5CCN(C)CC5)oc34)cc21 [Compound 6]
pIC50: 5.00 to 6.00
//
compound: C=CC(=O)Nc1cc(OC)cc(-c2csc3c(=O)cc(N4CCOCC4)oc23)c1 [Compound 8]
pIC50: > 6.00
//
compound: N#C/C(=C\C1CC1)C(=O)Nc1cccc(-c2csc3c(=O)cc(N4CCOCC4)oc23)c1 [Compound 11]
pIC50: > 6.00

Okay, now this compound:
Q. Give the reported pIC50 for this compound. C=CC(=O)Nc1cccc(-c2csc3c(=S)cc(N4CCOCC4)oc23)c1 [Compound 2]
A. > 6.00
